These data points were gathered from patent US10206398B2.

Recorded logP[b] for the following molecules
test: log P determination by HPLC on reversed-phase columns (C 18), analogous to OECD Guideline 117; type: physicochemical; conditions: method [b]
Please reply with the number alone, leaving off any unit.

Look over these answered cases.
MOLECULE	OBS_VALUE
Cc1cc(Cl)c(N2C(=O)CN(C(=O)Nc3ccccn3)C2=O)cc1SCC(F)(F)F	3.51
CCNC(=O)N1C(=O)N(c2cc(SCC(F)(F)F)c(C)cc2F)C(=O)C1(C)C	3.70
Cc1cc(F)c(N2C(=O)CN(C(=O)N(C)CC(C)C)C2=O)cc1SCC(F)(F)F	3.59
Cc1cc(F)c(N2C(=O)N(C(=O)NCC(F)(F)F)C(C)(C)C2=O)cc1SCC(F)(F)F	3.95
Cc1cc(C)c([S+]([O-])CC(F)(F)F)cc1N1C(=O)CN(C(=O)Nc2ccccn2)C1=O (racemic)	2.50
Cc1cc(F)c(N2C(=O)CN(C(=O)N3CCC(F)(F)CC3)C2=O)cc1[S+]([O-])CC(F)(F)F (stereo not drawn)	2.46
Cc1cc(F)c(N2C(=O)CN(C(=O)NCC(C)C)C2=S)cc1SCC(F)(F)F	4.18
Cc1cc(F)c(N2C(=O)CN(C(=O)NCC(F)(F)F)C2=O)cc1[S+]([O-])CC(F)(F)F (single isomer, unassigned) [Ex. No. 135]	2.44

Return reported logP[b]. Input molecule: Cc1cc(F)c(N2C(=O)CN(C(=O)N3CCC(F)(F)CC3)C2=O)cc1SCC(F)(F)F
3.29

Output measured logP[b] for this item: Cc1cc(F)c(N2C(=O)C(C)N(C(=O)NCC(F)(F)F)C2=O)cc1SCC(F)(F)F (racemic)
3.56

Give recorded logP[b]. Cc1cc(F)c(N2C(=O)CN(C(=O)Nc3ccccn3)C2=O)cc1SCC(F)(F)F
3.29

Could you please provide reported logP[b] for Cc1cc(F)c(N2C(=O)CN(C(=O)NC(C)(C)C)C2=O)cc1[S+]([O-])CC(F)(F)F (racemic) ? Thanks!
2.75

Provide only the value of recorded logP[b] for Cc1cc(F)c(N2C(=O)C(C)N(C(=O)NC3CC3)C2=O)cc1SCC(F)(F)F (stereo not drawn)
3.35

Give the measured logP[b] for Cc1cc(C)c([S+]([O-])CC(F)(F)F)cc1N1C(=O)CN(C(=O)NCC(C)C)C1=O (stereo not drawn)
2.76

Please report the measured logP[b] for Cc1cc(F)c(N2C(=O)CN(C(=O)NCC3CCCO3)C2=O)cc1SCC(F)(F)F (racemic)
2.98
